Origin of the recorded values: ChEMBL document CHEMBL1201862

Below, each entry is listed alongside its reported GI50.
Tested on: HL-60
Experiment: NCI tumour cell line growth inhibition, 48 h
Calls of active or inactive are those of the source. Rule as the data show it: active = GI50 up to about 1.1 µM and inactive = higher.

Dear colleague, I am looking for the recorded GI50 of the following compound: CCCCCC[C@H]1CC(=O)C2CCCC[C@@]23CC[C@H](CCl)N13.CCCCCC[C@H]1CC(=O)C2CCCC[C@@]23C[C@H](Cl)CN13 (some centres undefined) 21.8 µM (inactive)

Item: `O[C@@]1(C#Cc2ccc3c(c2)OCO3)CCC[C@H]1NCc1ccccc1` 18.4 µM (inactive)

Item: C[C@@H]1C[C@]2(C[C@@H](C)C3[C@@H](CC4(C)[C@@H]5CCC6C(C)(C)OC(=O)C=C[C@]67C[C@@]5(CC[C@]34C)OO7)O2)OC1=O (some centres undefined) 46.2 µM (inactive)

Item: `O=S(=O)(O)c1ccc(/N=N\c2ccc(/N=N\c3ccc(/C=C/c4ccc(/N=[N+](/[O-])c5ccc(/C=C/c6ccc(/N=N/c7ccc(/N=N\c8ccc(S(=O)(=O)O)cc8)cc7)cc6S(=O)(=O)O)c(S(=O)(=O)O)c5)cc4S(=O)(=O)O)c(S(=O)(=O)O)c3)cc2)cc1` > 100 µM (inactive)

====

Test system: 786-0
Assay: NCI tumour cell line growth inhibition, 48 h
Activity calls are given as the source filed them. Cut-off read from the data, not from the text of the source: active = GI50 up to about 1.1 µM and inactive = higher.
I would appreciate it if you answered using one of these outcomes: t (active), f (inactive)

Check out these entries, answers already filled in.
COc1cc(-c2nccc3cc(OC)c(OC)cc23)ccc1O    f
COC(=O)c1c2c(cc3c1CC1(C3)Cc3cc4c(c(C(=O)OC)c3C1)CCCC4)CCCC2    f
CCC(CON(C)c1ccccc1)(SC)SC    f
O=C1Nc2ccc(Br)cc2/C1=N/c1ccc2c(c1)OCO2    f
CCn1c(-c2cc3ccccc3cc2OC(C)=O)n[nH]c1=S    f

Hi team, can someone confirm the assay call for `O=C(O)c1cccc(SSc2cccc(C(=O)O)c2)c1` ? f

Item: `COP(=N[Si](C)(C)C)(OC)OC` f

Item: `O=C(N/C(=C\c1ccc(/C=C(\NC(=O)c2ccccc2)c2nc3c(O)nc(S)nc3[nH]2)cc1)c1nc2c(O)nc(S)nc2[nH]1)c1ccccc1` f

Item: CC(NC1CCCC[C@H]1O)c1ccccc1 (stereo partly specified) f

Item: `COc1ccc(C[C@H]2NC[C@H](OC(C)=O)[C@H]2OC(C)=O)cc1` t

Item: `O=c1c(NCc2ccccc2)c(C2(c3ccccc3F)SCCCS2)c1=O` f

====

System: UACC-257
Test: NCI tumour cell line growth inhibition, 48 h
Activity calls are given as the source filed them. Rule as the data show it: active = GI50 up to about 1.1 µM and inactive = higher.
I would appreciate it if you answered using one of these outcomes: active, inactive

Nc1nc2c3c(ncn3CC(O)CO2)n1 (centres undefined)    inactive
COc1cc2cc(C(=O)N3CC(CCl)c4c3cc(N)c3ccccc43)[nH]c2cc1OCCN(C)C (centres undefined)    active
N=C(c1ccccc1)N1CCCCC1    inactive
COc1c2ccoc2nc2c(OC)c(OCC(O)C(C)(C)O)ccc12 (centres undefined) [EVOXINE]    inactive
N#Cc1c(-c2ccccc2)[nH]c2ccccc2c1=O    inactive

Hi team, can someone confirm the assay call for `O=[N+]([O-])c1ccccc1/C=N/C12CC3CC(CC(C3)C1)C2` ? inactive

Item: `CCC(=O)C(CCN1CCC2(CCCc3ccccc32)CC1)(c1ccccc1)c1ccccc1` inactive

Item: `N/N=C1/C(=N/O)CCc2nonc21` inactive

Item: C=C1C(=O)OC2CC(=C)C3CC=C(C)C3CC12 (centres undefined) inactive

====

Test system: Hs-578T
Assay: NCI tumour cell line growth inhibition, 48 h
Active and inactive are the calls of the source. Rule as the data show it: active = GI50 up to about 1.1 µM and inactive = higher.
OBSERVATION TYPE: GI50

COc1ccc(/C(C)=N/NC(=O)c2ccncc2)cc1OC    7.05 µM (inactive)
O=[As](O)(O)c1ccc2nc3cc([As](=O)(O)O)ccc3nc2c1    > 100 µM (inactive)
CCOc1ccc2c(c1)c(CC(=O)O)cn2C    > 100 µM (inactive)
C=C(C)C(=O)O[C@@H]1C[C@@]2(C)O[C@@H]2C[C@H](O)/C(C)=C/[C@H]2OC(=O)C(=C)[C@@H]21    > 100 µM (inactive)
COc1cc(C2S/C(=C/c3ccccc3)C(=O)N2c2ccc([N+](=O)[O-])cc2)cc(OC)c1OC (stereo unspecified)    > 100 µM (inactive)

We now examine a further compound.
Dear colleague, I am looking for the recorded GI50 of the following compound: `COc1ccc(N2C(=O)C(=O)C3(CCCCC3)C2=O)c(OC)c1OC` > 100 µM (inactive)

====

Test system: HOP-18
Assay: NCI tumour cell line growth inhibition, 48 h
The source made the active and inactive calls. Rule as the data show it: active = GI50 up to about 1.1 µM and inactive = higher.
I would appreciate it if you answered using one of these outcomes: active, inactive

Check out these entries, answers already filled in.
COCCCNC(=O)C1C(=O)N(CCCOC)C(=O)/C1=N\N (stereo unspecified)    inactive
COc1ccc(C2S/C(=C\c3cccc(O)c3)C(=O)N2NC(=O)Cc2ccccc2)cc1 (stereo unspecified)    inactive
Cc1cccc(NC(=O)CC2C(=O)Nc3ccccc3S2(=O)=O)c1C (stereo unspecified)    inactive
Cc1c(-c2nnc(-c3ccc(Cl)cc3)o2)c(=O)n(-c2ccccc2)n1C    inactive
O=C(NC(Cc1ccc(I)cc1)C(=O)O)c1ccc(Cl)cc1 (stereo unspecified)    inactive

Hi team, can someone confirm the assay call for N/N=C1\c2ccccc2C2/C(=N\N)c3ccccc3C12 (stereo unspecified) ? inactive

Item: Cc1ccc(S(=O)(=O)OCC23CCC(C2)C2CC23)cc1 (stereo unspecified) inactive

Item: `CN(C)c1ccc(/C=C(\C#N)C(=O)c2ccccc2)cc1Br` inactive

====

Tested on: SNB-75
Test: NCI tumour cell line growth inhibition, 48 h
Activity calls are given as the source filed them. No stated cut-off is given here; in the data, active = GI50 up to about 1.1 µM and inactive = higher. Residues, ends and D or L forms follow the SMILES beside them. *: point of attachment. Ethyl(2-NMe3+) = C[N+](C)(C)CC*; Boc = CC(C)(C)OC(=O)*
I would appreciate it if you answered using one of these outcomes: class 1 for active, class 0 for inactive

Check out these entries, answers already filled in.
COc1ccc2c(-c3cc4ccccc4o3)cc(=O)oc2c1    class 0
c1cc2cc(Cc3ccc4[nH]ccc4c3)ccc2[nH]1    class 0
CN(C)c1ccc(/C=C/c2ccnc3ccccc23)cc1N    class 0
C[C@]12C=CC(=O)C=C1[C@@H](F)C[C@H]1[C@@H]3CC[C@](O)(C(=O)CO)[C@@]3(C)C[C@H](O)[C@@]12F    class 0
CCN1C[C@]2(C)CC[C@H](O)C34C1C(C[C@@H]32)[C@@]1(O)CC[C@H]2C[C@@H]4[C@@H]1[C@H]2O    class 0

Hi team, can someone confirm the assay call for `O=C(NC(=S)Nc1ccc([N+](=O)[O-])cc1)c1ccc2c(c1)Sc1ccccc1O2` ? class 0

Item: `COP(=N[Si](C)(C)C)(OC)OC` class 0

Item: O=C1CC2OCC=C3CN4CCC56c7ccccc7N1C5C2C3CC46O (stereo unspecified) class 0

Item: `CC(C)(C)c1ccc(-c2nc3ccc([N+](=O)[O-])cc3c(=O)o2)cc1` class 0

Item: O=C(O)C1=C(CO)Oc2cc3c(cc2C1c1ccc2c(c1)OCO2)OCO3 (stereo unspecified) class 0

Item: `COc1ccc(N2C(=O)C(=O)C3(CCCCC3)C2=O)c(OC)c1OC` class 0

Item: `O=S(=O)(O)c1ccc2c(/N=N\c3cccc4ccccc34)c(O)c(S(=O)(=O)O)cc2c1` class 0

Item: `N#CCCN(CCC#N)c1ccc(/C=C2\N=C(COc3ccc(Cl)cc3Cl)OC2=O)cc1` class 0

Item: CC(NC(=O)C(Cc1ccc(OCC[N+](C)(C)C)cc1)NC(=O)OC(C)(C)C)C(=O)NC(Cc1ccccc1)C(=O)NCC(N)=O (stereo unspecified) (Boc-Y(Ethyl(2-NMe3+))AFG-NH2; configuration not given here) class 0

====

Below, each entry is listed alongside its reported GI50.
Tested on: LOX IMVI
Assay: NCI tumour cell line growth inhibition, 48 h
The source made the active and inactive calls. Cut-off read from the data, not from the text of the source: active = GI50 up to about 1.1 µM and inactive = higher.

Use the examples below as a reference point.
N#CSc1ccc(S(N)(=O)=O)cc1    31.3 µM (inactive)
O=C(OCc1ccccc1C1CSCSC1)c1cc(C(=O)OCc2ccccc2C2CSCSC2)c(C(=O)OCc2ccccc2C2CSCSC2)cc1C(=O)OCc1ccccc1C1CSCSC1    > 100 µM (inactive)

For LOX IMVI, provide GI50 of `CC(C)(Cc1ccccc1)Cc1cc(O)ccc1O` please. 13.3 µM (inactive)

Item: `CN1C[C@H]2[C@@H](C1=O)[C@H](c1ccc([N+](=O)[O-])cc1)ON2C` > 100 µM (inactive)

Item: `O=C(O)c1ccc(SSc2ccc(C(=O)O)cn2)nc1` > 100 µM (inactive)

Item: OC(c1cccnc1Cl)c1nc2ccccc2c2ccnc(Cl)c12 (configuration not stated) 7.01 µM (inactive)

Item: `CNc1cc(OCc2ccccc2)c(OC)cc1C(=O)N1CCC[C@H]1CO` > 100 µM (inactive)

Item: `c1ccc2c(c1)SCCCS2` > 100 µM (inactive)

Item: `O=[N+]([O-])c1ccc(/N=N/c2c(O)ccc3ccccc23)cc1` > 100 µM (inactive)

Item: C[C@@H]1CCC2[C@@H](C)C(=O)O[C@@H]3C4C[C@@H]1[C@@]23OO[C@@]4(C)O (some centres not stated) 23.1 µM (inactive)

Item: `CCOC(=O)c1nnsc1NC(=O)NN` 82.2 µM (inactive)

Item: COc1cc(C(C)O)c[n+](CCC2CNc3ccccc32)c1 (configuration not stated) > 100 µM (inactive)
